# Assayed System: Sodium-dependent noradrenaline transporter (Homo sapiens, UniProt P23975)
# Sequence (P23975 whole entry): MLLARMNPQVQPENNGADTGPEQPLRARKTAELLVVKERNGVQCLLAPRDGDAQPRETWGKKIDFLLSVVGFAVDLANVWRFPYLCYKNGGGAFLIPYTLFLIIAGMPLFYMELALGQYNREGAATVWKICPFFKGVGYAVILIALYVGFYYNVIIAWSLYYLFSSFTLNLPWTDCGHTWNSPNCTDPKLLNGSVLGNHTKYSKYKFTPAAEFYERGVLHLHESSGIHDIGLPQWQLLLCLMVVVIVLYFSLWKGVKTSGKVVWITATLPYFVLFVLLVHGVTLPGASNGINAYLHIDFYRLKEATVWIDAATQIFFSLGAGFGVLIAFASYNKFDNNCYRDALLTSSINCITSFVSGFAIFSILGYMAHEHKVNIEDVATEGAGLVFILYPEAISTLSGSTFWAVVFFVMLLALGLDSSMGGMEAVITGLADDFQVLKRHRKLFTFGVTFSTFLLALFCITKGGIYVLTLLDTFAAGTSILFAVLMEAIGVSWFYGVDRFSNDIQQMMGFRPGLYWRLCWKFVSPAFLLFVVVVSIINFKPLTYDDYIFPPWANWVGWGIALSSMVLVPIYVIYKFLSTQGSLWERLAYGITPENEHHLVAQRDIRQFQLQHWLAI
pKi: −log10 of the molar value.
# binarize pKi: threshold 8 inclusive, high side yes (1), low side no (0)

{"Compound Structure String": "CC(C)CN(Cc1ccc(F)cc1C(F)(F)F)C1CCNCC1", "Assayed System": "Sodium-dependent noradrenaline transporter (Homo sapiens, UniProt P23975)", "Cat": "yes (1)"}
{"Compound Structure String": "FC(F)(F)OCCN(Cc1ccccc1C(F)(F)F)C1CCNCC1", "Assayed System": "Sodium-dependent noradrenaline transporter (Homo sapiens, UniProt P23975)", "Cat": "no (0)"}
{"Compound Structure String": "CC(C)CN(Cc1cccc(F)c1)C1CCNCC1", "Assayed System": "Sodium-dependent noradrenaline transporter (Homo sapiens, UniProt P23975)", "Cat": "no (0)"}
{"Compound Structure String": "CC(C)CN(Cc1cc(F)ccc1C(F)(F)F)C1CCNCC1", "Assayed System": "Sodium-dependent noradrenaline transporter (Homo sapiens, UniProt P23975)", "Cat": "yes (1)"}
{"Compound Structure String": "CC(C)CN(Cc1ccccc1C#N)C1CCNCC1", "Assayed System": "Sodium-dependent noradrenaline transporter (Homo sapiens, UniProt P23975)", "Cat": "no (0)"}
{"Compound Structure String": "CC(C)(C)CN(Cc1ccccc1C(F)(F)F)C1CCNCC1", "Assayed System": "Sodium-dependent noradrenaline transporter (Homo sapiens, UniProt P23975)", "Cat": "yes (1)"}
{"Compound Structure String": "CC(C)CN(Cc1cccc(C(F)(F)F)c1)C1CCNCC1", "Assayed System": "Sodium-dependent noradrenaline transporter (Homo sapiens, UniProt P23975)", "Cat": "no (0)"}

* * *

# Assayed System: UniProt P23975

{"Compound Structure String": "CC(C)CN(Cc1ccc(C#N)cc1)C1CCNCC1", "Ki / µM": 0.19}
{"Compound Structure String": "CC(C)(O)CN(Cc1ccc(F)cc1C(F)(F)F)C1CCNCC1", "Ki / µM": 0.0042}
{"Compound Structure String": "CCCCN(Cc1ccc(F)cc1C(F)(F)F)C1CCNCC1", "Ki / µM": 0.0083}
{"Compound Structure String": "COCCCN(Cc1ccc(F)cc1C(F)(F)F)C1CCNCC1", "Ki / µM": 0.0054}
{"Compound Structure String": "CC(C)CN(Cc1ccccc1)C1CCNCC1", "Ki / µM": 0.091}
{"Compound Structure String": "FC(F)(F)CN(Cc1ccccc1C(F)(F)F)C1CCNCC1", "Ki / µM": 0.033}
{"Compound Structure String": "CC(C)CN(Cc1ccc(C(F)(F)F)cc1)C1CCNCC1", "Ki / µM": 0.3}
{"Compound Structure String": "COc1ccc(CN(CC(C)C)C2CCNCC2)c(OC)c1", "Ki / µM": 1.06}
{"Compound Structure String": "CCCN(Cc1ccc(F)cc1C(F)(F)F)C1CCNCC1", "Ki / µM": 0.0036}
{"Compound Structure String": "CC(C)CN(Cc1cc(Cl)ccc1Cl)C1CCNCC1", "Ki / µM": 0.0055}
{"Compound Structure String": "COCCN(Cc1ccccc1C(F)(F)F)C1CCNCC1", "Ki / µM": 0.0083}
{"Compound Structure String": "N#CCCCN(Cc1ccc(F)cc1C(F)(F)F)C1CCNCC1", "Ki / µM": 0.0133}

* * *

# Assayed System: UniProt P31645
# Sequence (P31645 whole entry): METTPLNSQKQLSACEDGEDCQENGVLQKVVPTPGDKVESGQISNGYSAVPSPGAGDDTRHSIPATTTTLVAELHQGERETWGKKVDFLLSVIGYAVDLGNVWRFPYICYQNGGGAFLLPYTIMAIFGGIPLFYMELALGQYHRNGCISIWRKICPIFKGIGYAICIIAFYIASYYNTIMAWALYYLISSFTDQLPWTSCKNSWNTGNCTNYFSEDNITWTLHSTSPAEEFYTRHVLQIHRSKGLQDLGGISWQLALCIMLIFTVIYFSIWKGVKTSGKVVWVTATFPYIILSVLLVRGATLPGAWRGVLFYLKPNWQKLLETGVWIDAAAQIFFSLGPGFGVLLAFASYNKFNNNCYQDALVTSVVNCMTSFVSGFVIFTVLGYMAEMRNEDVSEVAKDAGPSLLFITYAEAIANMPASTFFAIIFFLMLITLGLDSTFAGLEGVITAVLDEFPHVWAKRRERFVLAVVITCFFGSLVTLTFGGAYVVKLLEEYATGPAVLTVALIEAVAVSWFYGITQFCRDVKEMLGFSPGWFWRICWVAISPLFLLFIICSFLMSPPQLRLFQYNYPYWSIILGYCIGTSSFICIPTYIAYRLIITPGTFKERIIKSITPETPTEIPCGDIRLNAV
pKi: −log10 of the molar value.
Metric: pKi

{"Compound Structure String": "CC(C)OCCN(Cc1ccc(F)cc1C(F)(F)F)C1CCNCC1", "Metric": "pKi", "Data Value": 8.52}
{"Compound Structure String": "CC(C)CN(Cc1ccccc1Cl)C1CCNCC1", "Metric": "pKi", "Data Value": 8.80}
{"Compound Structure String": "COCCCN(Cc1ccc(F)cc1C(F)(F)F)C1CCNCC1", "Metric": "pKi", "Data Value": 8.96}
{"Compound Structure String": "CC(C)CN(Cc1cccc(C#N)c1)C1CCNCC1", "Metric": "pKi", "Data Value": 9.32}
{"Compound Structure String": "OCCN(Cc1ccc(F)cc1C(F)(F)F)C1CCNCC1", "Metric": "pKi", "Data Value": 8.51}
{"Compound Structure String": "CCOCCN(Cc1ccc(F)cc1C(F)(F)F)C1CCNCC1", "Metric": "pKi", "Data Value": 8.55}
{"Compound Structure String": "CC(C)(O)CCN(Cc1ccc(F)cc1C(F)(F)F)C1CCNCC1", "Metric": "pKi", "Data Value": 8.30}
{"Compound Structure String": "CC(C)CN(Cc1ccc(C#N)cc1)C1CCNCC1", "Metric": "pKi", "Data Value": 9.55}
{"Compound Structure String": "CCN(Cc1ccccc1C(F)(F)F)C1CCNCC1", "Metric": "pKi", "Data Value": 8.10}
{"Compound Structure String": "CC(C)CN(Cc1cccc(C(F)(F)F)c1)C1CCNCC1", "Metric": "pKi", "Data Value": 9.59}
{"Compound Structure String": "Cc1ccc(CN(CC(C)C)C2CCNCC2)cc1", "Metric": "pKi", "Data Value": 9.00}
{"Compound Structure String": "CC(C)(C#N)CCN(Cc1ccc(F)cc1C(F)(F)F)C1CCNCC1", "Metric": "pKi", "Data Value": 9.15}
{"Compound Structure String": "CC(C)(C)CN(Cc1ccccc1C(F)(F)F)C1CCNCC1", "Metric": "pKi", "Data Value": 8.37}
{"Compound Structure String": "CC(C)(C#N)CN(Cc1ccc(F)cc1C(F)(F)F)C1CCNCC1", "Metric": "pKi", "Data Value": 8.38}
{"Compound Structure String": "CC(C)CN(Cc1ccccc1)C1CCNCC1", "Metric": "pKi", "Data Value": 8.08}
{"Compound Structure String": "CSc1ccccc1CN(CC(C)C)C1CCNCC1", "Metric": "pKi", "Data Value": 8.96}
{"Compound Structure String": "CC(C)CN(Cc1cc(C(F)(F)F)ccc1Cl)C1CCNCC1", "Metric": "pKi", "Data Value": 8.02}
{"Compound Structure String": "COCCN(Cc1ccccc1C(F)(F)F)C1CCNCC1", "Metric": "pKi", "Data Value": 8.60}
{"Compound Structure String": "CCCN(Cc1ccccc1C(F)(F)F)C1CCNCC1", "Metric": "pKi", "Data Value": 8.66}
{"Compound Structure String": "Fc1ccc(CN(CC2CC2)C2CCNCC2)c(C(F)(F)F)c1", "Metric": "pKi", "Data Value": 9.40}
{"Compound Structure String": "Cc1ccccc1CN(CC(C)C)C1CCNCC1", "Metric": "pKi", "Data Value": 8.82}
{"Compound Structure String": "CC(C)CN(Cc1ccccc1C#N)C1CCNCC1", "Metric": "pKi", "Data Value": 8.92}
{"Compound Structure String": "CC(C)CN(Cc1cc(F)ccc1C(F)(F)F)C1CCNCC1", "Metric": "pKi", "Data Value": 8.10}
{"Compound Structure String": "CC(C)CN(Cc1cc(Cl)ccc1Cl)C1CCNCC1", "Metric": "pKi", "Data Value": 8.68}
{"Compound Structure String": "CC(C)CN(Cc1ccccc1C(F)(F)F)C1CCNCC1", "Metric": "pKi", "Data Value": 8.85}
{"Compound Structure String": "CCCCN(Cc1ccc(F)cc1C(F)(F)F)C1CCNCC1", "Metric": "pKi", "Data Value": 8.89}

* * *

# Assayed System: Sodium-dependent dopamine transporter (Homo sapiens)
# Sequence (Q01959 whole entry): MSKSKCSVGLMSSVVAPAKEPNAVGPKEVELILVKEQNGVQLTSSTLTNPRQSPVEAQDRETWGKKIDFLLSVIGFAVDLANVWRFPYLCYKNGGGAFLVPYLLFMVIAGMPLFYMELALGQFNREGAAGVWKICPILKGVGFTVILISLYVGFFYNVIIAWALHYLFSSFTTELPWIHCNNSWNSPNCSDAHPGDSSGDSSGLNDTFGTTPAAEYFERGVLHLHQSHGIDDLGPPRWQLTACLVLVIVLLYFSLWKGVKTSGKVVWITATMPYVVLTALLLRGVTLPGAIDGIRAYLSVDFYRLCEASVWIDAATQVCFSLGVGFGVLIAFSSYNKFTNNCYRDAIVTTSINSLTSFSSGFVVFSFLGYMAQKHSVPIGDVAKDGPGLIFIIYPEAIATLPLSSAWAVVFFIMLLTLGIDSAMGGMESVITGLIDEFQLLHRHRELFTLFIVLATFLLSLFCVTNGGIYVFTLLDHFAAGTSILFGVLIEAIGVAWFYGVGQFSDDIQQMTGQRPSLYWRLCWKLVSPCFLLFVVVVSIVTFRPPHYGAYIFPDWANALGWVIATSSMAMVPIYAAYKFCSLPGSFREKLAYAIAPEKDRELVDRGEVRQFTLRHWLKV
# Experiment Notes: Displacement of [3H]WIN-35 from DAT

{"Compound Structure String": "CC(C)CN(Cc1cccc(C#N)c1)C1CCNCC1", "Ki / µM": 0.201}
{"Compound Structure String": "CC(C)CN(Cc1ccccc1C(F)(F)F)C1CCNCC1", "Ki / µM": 0.21}
{"Compound Structure String": "CC(C)CN(Cc1ccc(F)cc1)C1CCNCC1", "Ki / µM": 0.2}
{"Compound Structure String": "CC(C)CN(Cc1ccccc1F)C1CCNCC1", "Ki / µM": 0.33}
{"Compound Structure String": "CC(C)CN(Cc1ccc(F)cc1F)C1CCNCC1", "Ki / µM": 0.58}
{"Compound Structure String": "CC(C)CN(Cc1ccc(Cl)cc1Cl)C1CCNCC1", "Ki / µM": 0.23}
{"Compound Structure String": "Cc1cccc(CN(CC(C)C)C2CCNCC2)c1", "Ki / µM": 0.098}

* * *

# Assayed System: Sodium-dependent dopamine transporter (Homo sapiens)
# Experiment Notes: Displacement of [3H]WIN-35 from DAT at 1 uM
Reported values of inhibition for individual entries
Metric: inhibition (%)

{"Compound Structure String": "CCN(Cc1ccccc1C(F)(F)F)C1CCNCC1", "Unit Of Measure": "%", "Data Value": -2}
{"Compound Structure String": "OCCN(Cc1ccc(F)cc1C(F)(F)F)C1CCNCC1", "Unit Of Measure": "%", "Data Value": -7}
{"Compound Structure String": "FC(F)(F)OCCN(Cc1ccccc1C(F)(F)F)C1CCNCC1", "Unit Of Measure": "%", "Data Value": -8}
{"Compound Structure String": "COc1ccc(F)cc1CN(CC(C)C)C1CCNCC1", "Unit Of Measure": "%", "Data Value": -2}
{"Compound Structure String": "COCCCN(Cc1ccc(F)cc1C(F)(F)F)C1CCNCC1", "Unit Of Measure": "%", "Data Value": -7}
{"Compound Structure String": "CC(C)(O)CN(Cc1ccc(F)cc1C(F)(F)F)C1CCNCC1", "Unit Of Measure": "%", "Data Value": -8}
{"Compound Structure String": "COCCN(Cc1ccccc1C(F)(F)F)C1CCNCC1", "Unit Of Measure": "%", "Data Value": 4}
{"Compound Structure String": "COc1ccccc1CN(CC(C)C)C1CCNCC1", "Unit Of Measure": "%", "Data Value": 4}
{"Compound Structure String": "CC(C)OCCN(Cc1ccc(F)cc1C(F)(F)F)C1CCNCC1", "Unit Of Measure": "%", "Data Value": 5}
{"Compound Structure String": "COc1ccc(CN(CC(C)C)C2CCNCC2)c(OC)c1", "Unit Of Measure": "%", "Data Value": 1.8}
{"Compound Structure String": "CC(C)(O)CCN(Cc1ccc(F)cc1C(F)(F)F)C1CCNCC1", "Unit Of Measure": "%", "Data Value": 1.3}
{"Compound Structure String": "N#CCCN(Cc1ccc(F)cc1C(F)(F)F)C1CCNCC1", "Unit Of Measure": "%", "Data Value": -4}
{"Compound Structure String": "CCOCCN(Cc1ccc(F)cc1C(F)(F)F)C1CCNCC1", "Unit Of Measure": "%", "Data Value": -3}
{"Compound Structure String": "COCCCN(Cc1ccccc1C(F)(F)F)C1CCNCC1", "Unit Of Measure": "%", "Data Value": -8}
{"Compound Structure String": "N#CCCCN(Cc1ccc(F)cc1C(F)(F)F)C1CCNCC1", "Unit Of Measure": "%", "Data Value": 10}
{"Compound Structure String": "CN(Cc1ccccc1C(F)(F)F)C1CCNCC1", "Unit Of Measure": "%", "Data Value": 3}
